ASSAY SYSTEM: KRas G13D (Homo sapiens, UniProt P01116, G13D)
Sequence (P01116 1-169 isoform P01116-2 G13D): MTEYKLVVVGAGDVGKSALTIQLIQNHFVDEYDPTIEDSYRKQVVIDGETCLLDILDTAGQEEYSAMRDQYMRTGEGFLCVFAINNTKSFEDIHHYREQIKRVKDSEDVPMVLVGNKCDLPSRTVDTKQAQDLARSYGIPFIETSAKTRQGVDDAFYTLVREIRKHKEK
Format: binding
CONDITION PARAMETERS: TR-FRET displacement, read-out: Binding to KRas (IC50 nM) G13D
# strict inequality: IC50 < 20000 nM yields true (1), everything else yields false (0)

# example entries with known answers
CCc1cccc2cccc(N3CCc4c(nc(OCC5(CN(C)C)CC5)nc4N4CCOC(C(F)F)CC4)C3)c12 (centres unmarked)    true (1)
Cc1cc2[nH]ncc2c(N2CCc3c(nc(OCC45CCCN4CCC5)nc3N3CCOCC(C)(O)C3)C2)c1C (centres unmarked)    true (1)
Cc1cc2[nH]ncc2c(N2CCc3c(nc(OCC45CCCN4CCC5)nc3N3CCCC4(CC(O)C4)C3)C2)c1C (single isomer, unassigned; isomer 1)    true (1)

With those in mind, consider the next molecule.
IN: Is the reported IC50 for CCc1cccc2cccc(N3CCc4c(nc(OCC5(CN(C)C)CC5)nc4N4CCn5nnc(CO)c5C4)C3)c12 strictly below 20000 nM?
OUT: true (1)
